Entry source: ChEMBL document CHEMBL1154198

system: Plasmodium falciparum; test: ST_JUDE: Plasmodium falciparum K1 EC50 (uM) as measured by SYBR green dye; type: functional, organism-based
measurement_type: EC50 (µM)

>>> measured_number("COc1cccc(CNC(=O)C2c3ccccc3C(=O)N(CC(C)C)C2c2cccs2)c1 (stereo not given)")
4.13
>>> measured_number("Cc1cccc(NC(c2cccc(Cl)c2)c2ccc3cccnc3c2O)n1 (stereo not given)")
3.34
>>> measured_number("Cc1ccc(O)c(-n2cc3c(c2-c2ccc(C(C)(C)C)cc2)c(=O)n(C)c(=O)n3C)c1")
2.41
>>> measured_number("CCOC(=O)C1(Cc2cccc(F)c2)CCN(Cc2ccccc2O)CC1")
0.284
>>> measured_number("C=CCNc1c2c(nc3ccccc13)CCC2")
1.15
>>> measured_number("CCC1CCCCN1CCCNC(=S)Nc1ccc2nc(N3CCN(CC)CC3)cc(C)c2c1 (stereo not given)")
9.17
>>> measured_number("CCOC(=O)C1=C(CN(C)c2ccc(F)cc2)NC(=O)NC1c1ccc(F)cc1 (stereo not given)")
1.23
>>> measured_number("COc1ccc(NC(=O)c2c(-c3c(Cl)cccc3Cl)noc2C)c(OC)c1")
5.43
